- System name: wild-type H6-PKA-Cα, untreated (alpha isoform of the catalytic subunit of cAMP-dependent protein kinase) (murine, UniProt P05132 2-351)
- Test method notes: SPR; OpenSPR-XT; CREBtide coupled (EDC/sulfo-NHS) to a carboxyl sensor, surface blocked with monomeric streptavidin and ethanolamine; PKA-Cα 0.078–10 µM flowed at 20 µL/min; 1X HBS-P+, 10 mM MgCl2, 0.01% NP-40, 0.5% BSA, 10 µM AMP-PNP, pH 7.4; equilibrium analysis; apparent
- Test conditions: both partners purified
pKd: −log10 of the molar value.
Parameter measured: pKd

# Binder, Experimental value
rows = [
    ("KRREILSRRPSYR (Coupled by EDC/sulfo-NHS to the carboxyl sensor in SPR; source: bought: Alfa Aesar) [CREBtide]", 5.48),
]
